Data origin: paper PMC4337483

Assay Target: BTN3A1 B30.2 domain (BTN3A1 residues 310-513) (Homo sapiens)
Assay Metric: Kd (µM)

Molecule	Reported Value
C=C(C)CCO[P@@](=O)(O)OP(=O)(O)O [IPP]	672
